# Test system: human growth hormone receptor mRNA
# Experiment Summary: Inhibition of human growth hormone receptor mRNA levels by antisense oligonucleotides, quantitative real-time PCR, MCF7 cells
# Format: cell-based
# Design: concentration or dose not given beside the values
# Measurement Context: averages from three experiments
e = 2'-O-(2-methoxyethyl) (MOE); d = 2'-deoxy (DNA)
Measured Quantity: % INHIB (inhibitory effect on hGHR mRNA levels) (%)
Write the number in % without appending the unit.

Worked examples follow.
272355 (antisense TTGAGTGTTCCTAAAATGAA; sugars from the 5' end e5 d10 e5, all phosphorothioate, methylation of C not given here) [compound 272355]: 24
272318 (antisense TCAGCATTTTAATCCTTTGC; sugars from the 5' end e5 d10 e5, all phosphorothioate, methylation of C not given here) [compound 272318]: 55
227490 (antisense GCATGATTTTGTTCAGTTGG; sugars from the 5' end e5 d10 e5, all phosphorothioate, methylation of C not given here) [compound 227490]: 67
272327 (antisense GGACATCCCTGCCTTATTCT; sugars from the 5' end e5 d10 e5, all phosphorothioate, methylation of C not given here) [compound 272327]: 60

As a next step, examine the substance that follows.
Return reported % INHIB (inhibitory effect on hGHR mRNA levels); argument: 227499 (antisense TATAAAAGGGCTTTGTAAAA; sugars from the 5' end e5 d10 e5, all phosphorothioate, methylation of C not given here) [compound 227499]
14
